- assayedTarget: SARS-CoV-2 spike protein bearing furin mutation and truncation in retention sequence, presented in t (SARS-CoV-2, UniProt P0DTC2 14-1273)
- assayMethodText: cell-based or functional assay
Sorting guide: entries reporting PV neutralisation IC50 beneath 0.5 nM go in the YES pile, the rest go in the NO pile.

{"binder": "YANG-2302 (antibody, V domains shown) VH: QVQLVQSGAEVRKPGASVKVSCKVSGYTLPELAIHWVRQAPGKGLEWMGGFIPEDGDTIYAQKFQGRVTMTEDTSTDTAYMDLTSLRSEDAAVYYCTSGWAAPGYNYGMAVWGQGTTVTVSS VL: EVVLTQSPGTLSLSSGERATLSCRASQSVSSNYLAWYQKKPGQAPRLLIYGASSRVTGIPDRFGGSGSGTDFTLTISRLEPEDFAVYYCQQYDASPYSFGQGTKLDIK", "cat": "NO"}
{"binder": "YANG-2304 (antibody, V domains shown) VH: QVQLVQSGTEVKKPGASVKVSCKVSGYTLPELAIHWVRQAPGKGLEWMGTFDPEDGETICAQKFQGRVTMTEDTSTDTAYMDLSSLRSEDTAVYYCATTSIIAARWWFDPWGQGTLVTVSS VL: QSALTQPPSASGSPGQSVTISCTGTSSDVGGYDYVSWYQQHPGKAPKLMIYEVSKRPSGVPDRFSGSKSGNTASLTVSGLQAEDEADYYCSSFAGSNNVVFGGGAKLTVL", "cat": "NO"}
{"binder": "YANG-2303 (antibody, V domains shown) VH: QVQLVQSGAEVKKPGASVRVSCKVSGYTLPELAIHWVRQAPGKGLEWMGGFDPEDGETIYAQKFQGRVIMTEDTSTDTAYMDLSSLRSEDTAVYYCVKTWAAPGYNYGLDTWGQGTTVTVSS VL: EIVLTQSPGILSLSPGESATLSCRASQSIASNYLAWFQQKPGQAPRLLIYGASSRAAGFPDRFSGSGSGTDFTLTIKRLEPEDSAVYYCQHYGSSPCSFGQGTNLEIK", "cat": "YES"}
{"binder": "YANG-2306 (antibody, V domains shown) VH: QVQLVQSGAEVKKPGASVKVSCKVSGYTLPEISIHWVRQAPGKGLEWMGGFDPEDGETIYAQKFQGRVIMTEDTSTDTAYMDLSSLRSEDTAVYFCAAAPAIASASTFWLDPWGQGTLVTVST VL: QSALTQPPSASGSPGQSVTISCTGTSSDVGGYNYVSWYQQHPGKAPKLMIYEVTKRPSGVPDRFSGSKSDNTASLTVSGLQAEDEADYYCSSYAGSNNLVFGGGTKLTVL", "cat": "YES"}
{"binder": "YANG-2301 (antibody, V domains shown) VH: QVHLIQSGAEVKKPGASVKVSCKVSGYTLIEVSVHWVRQAPGKGLEWMGGFDPEAAETIYAQKFQGRVTMTEDTSTDTAYMDLSSLKSEDSAVYYCAIGPAVTGRNSGEYYYYYGMDVWGQGTTVTVAS VL: EIVMTQSPATLSVSPGERATLSCRASQSVNSNLAWYQQKPGQAPRLLIYAVSTRATGLPARFSGSGSGTEFTLTISSLQSEDFVVYYCHQYNNWPLTFGGGTKVEIK", "cat": "NO"}
{"binder": "YANG-2208 (antibody, V domains shown) VH: QIQLVQSGAEVRKPGASVRFSCKTSGYIFTNYYMVWVRQAPGQGLEWMGIIKPSGGNTIYAQKFQGRVTMTRDTSTNTVYMDLNNLRSEDTAVYFCARTGDRAFDVWGQGTMVTVSS VL: QSVLTQPPSMSAAPGQKVTISCSGNSSNIGNNFVSWYRQFPGTAPKLLIYDNNKRPSGIPDRFSGSKSGTSATLGITGLQTGDEADYYCGTWDSSLSAGVFGGGTKLTVL", "cat": "NO"}
{"binder": "YANG-2205 (antibody, V domains shown) VH: QIQLVQSGAEVKKPGASVKFSCKTSGYTFTSYYMVWVRQAPGQGLEWMGIIKPSGGNTIYAQKFQGRVTMTRDTSTNTVYMDLSSLRSEDTAVYYCARTGDRAFDVWGHGTMITVSS VL: QSVLTQPPSVSAAPGQKVTISCSGSSSNIGNNFVSWYQQFPGTAPKLLIYDNNKRPSGIPDRFSGSKSGTSATLGITGLQTGDEADYYCGTWDSSLGAGVFGGGTKLTVL", "cat": "NO"}
